FYI, the data here is from PubChem BioAssay.

# assayDetails: viability profiling in MM1S myeloma cells – cell-based, resazurin fluorescence, basal, 24 h, PK04 Diversity Set, profiling panel (AID 1174);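 note: MM1S multiple myeloma cell line; test concentration not given here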
# studyConditions: higher = more signal, called active from +8 up or from −8 down
z-score values for the molecules below.
// print number alone

// known answers, use as guide
- molecule: "C=CC[C@@]1(C(=O)NCCN2CCOCC2)N=C(c2ccc(OCCCO)cc2)O[C@@H]1c1ccccc1"
  z-score: 0.275
- molecule: "COc1ccc(C#Cc2ccc3c(c2)[C@]2(C(=O)N3)[C@H](C(N)=O)[C@H]3C(=O)O[C@H](c4ccccc4)[C@H](c4ccccc4)N3[C@@H]2c2ccc(O)cc2)cc1"
  z-score: -4.88

Which measured z-score value corresponds to `COc1ccc(C(=O)Nc2ccc3c(c2)[C@]2(O[C@@H](CCO)[C@H]([Si](C)(C)c4ccc(OC)cc4)[C@H]2C)C(=O)N3Cc2ccccc2)cc1` ?
-7.18

Fill in the blank: the reported z-score of `COC(=O)[C@@]1(Cc2ccccc2)[C@H]2c3cc(C(=O)N4CCCC4)n(CCO)c3C[C@H]2CN1C(=O)c1ccccc1` is ____.
-0.892

// z-score lookup, key: CCCCC(O)C1C=CC2C(=O)N(Cc3ccccc3)C(=O)C2N1n1cnnc1 (stereo not drawn)
-0.748

What value of measured z-score is listed for `CCCC[C@@H](O)C1=C(COc2ccccc2)Cn2c(=O)n(-c3ccccc3)c(=O)n2[C@H]1CO` ?
0.0088

Name the recorded z-score for `COC(=O)[C@@]1(Cc2ccc(OC)cc2)[C@H]2c3cc(C(=O)N(C)C)n(CCF)c3C[C@H]2CN1C(=O)c1ccccc1` .
-0.386

Field request: z-score | item: `CO[C@H]1O[C@H](CO)[C@@H](OC(=O)Nc2cccc(F)c2)[C@H](OC(=O)Nc2ccc3c(c2)OCO3)[C@H]1OC(=O)Nc1ccc2c(c1)OCO2`
-1.53

I am curious: what z-score value has been reported for `NC(=O)[C@@H]1[C@H]2C(=O)O[C@H](c3ccccc3)[C@H](c3ccccc3)N2[C@H](c2ccccc2OCCO)[C@@]12C(=O)Nc1ccc(C#CCCO)cc12` ?
-0.476

====

# assayDetails: ATP-based viability of Huh7 replicon cells – cell-based, CellTiter-Glo luminescence, basal, 48 h, cytotoxicity control for HCV replication inhibitor project, primary screen (AID 1143);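 note: Huh7 hepatoma cells carrying a hepatitis C replication reporter with no stimulus; test concentration not given here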
# studyConditions: higher = more signal, called active from +8 up or from −8 down
Tick TRUE if z-score is -0.8 or greater. Tick FALSE if z-score is less than -0.8.

Solved entries (count: 4):
- molecule: "O=C1N(CCS(=O)(=O)c2ccccc2)Cc2ccccc2C[C@@]12COC(c1ccc(OCCCO)cc1)=N2"
  assignedLabel: "FALSE"
- molecule: "CCCC=C(CCC)[C@@H](NC(=O)Cc1ccccc1)c1ccc(C(=O)OC)cc1"
  assignedLabel: "FALSE"
- molecule: "Cc1ccccc1C(O)C1C=CC2C(=O)N(Cc3ccccc3)C(=O)C2N1n1cnnc1 (configuration not stated)"
  assignedLabel: "TRUE"
- molecule: "COCCOC(=O)N1C(=O)[C@@]2(c3ccccc31)[C@H](c1ccc(OCCO)cc1)N1[C@H](c3ccccc3)[C@H](c3ccccc3)OC(=O)[C@H]1[C@@H]2C(=O)NC[C@H](O)c1ccccc1"
  assignedLabel: "FALSE"

I'd appreciate it if you could say whether `COc1ccc([Si](C)(C)[C@@H]2[C@@H](CCO)O[C@]3(C(=O)N(Cc4cccc(N5C(=O)COc6ccccc65)c4)c4ccccc43)[C@H]2C)cc1` has z-score at least equal to -0.8.
FALSE

Please check the record O=C1C2C=CC(C(O)c3ccc(Br)cc3)N(Nc3ccccc3)C2C(=O)N1c1ccccc1 (configuration not stated) and state if its z-score is at or above -0.8.
TRUE

Is z-score at least -0.8? Consider `COC(=O)[C@@]1(Cc2ccc(OC)cc2)[C@H]2c3cc(C(=O)N(C)C)n(Cc4cc(C)n(C)n4)c3C[C@H]2CN1C(=O)c1ccccc1`
TRUE
